ka reference
System: cynomolgus ARG2
Sequence (as listed by the source): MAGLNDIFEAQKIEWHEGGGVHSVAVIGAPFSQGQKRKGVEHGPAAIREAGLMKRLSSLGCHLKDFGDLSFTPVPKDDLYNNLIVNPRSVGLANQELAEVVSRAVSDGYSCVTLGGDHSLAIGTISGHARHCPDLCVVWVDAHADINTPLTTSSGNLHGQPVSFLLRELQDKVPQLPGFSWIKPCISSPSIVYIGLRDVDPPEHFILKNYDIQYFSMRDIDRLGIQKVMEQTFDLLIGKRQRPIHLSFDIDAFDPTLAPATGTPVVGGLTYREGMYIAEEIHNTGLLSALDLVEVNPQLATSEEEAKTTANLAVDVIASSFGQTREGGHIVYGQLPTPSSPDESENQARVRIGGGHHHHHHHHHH
MEASUREMENT_DESCRIPTION: Bio-Layer Interferometry (OctetRED) binding kinetics, cynomolgus ARG2
RUN_CONDITIONS: Fab as analyte; cyno ARG2 ligand; affinity-matured antibodies
Enter the number, and then the unit.

Below, 3 molecules whose answers are already recorded.
INSERT INTO assay_data (molecule, result_type, measured_value) VALUES
  ('C0021061: anti-ARG2 antibody, first generation lead, VH SEQ ID NO: 62, VL SEQ ID NO: 67 (antibody, listed as Homo sapiens, V domains shown, C0021061) VH: EVQLLESGGGLVQPGGSLRLSCAASGFTFSSYAMSWVRQAPGKGLEWVSAKPTDAGSTYYADSVKGRFTISRDNSKNTLYLQMNSLRAEDTAVYYCARLRADLGLYMDLWGRGTLVTVSS VL: QSVLTQPPSVSAAPGQKVTISCSGSSSNIGNHYVSWYQQLPGTAPKLLIYNTVYPKSGIPDRFSGSKSGTSATLGITGLQTGDEADYYCGTWDSSLSALVFGGGTKLTVL', 'ka', '310000 M⁻¹ s⁻¹'),
  ('C0021139: anti-ARG2 antibody, VH SEQ ID NO: 212, VL SEQ ID NO: 217 (antibody, listed as Homo sapiens, V domains shown, C0021139) VH: EVQLLESGGGLVQPGGSLRLSCAASGFTFQYDYQVWVRQAPGKGLEWVSAISGSGGSTYYADSVKGRFTISRDNSKNTLYLQMNSLRAEDTAVYYCARLRADLGLYMDLWGRGTLVTVSS VL: QSVLTQPPSVSAAPGQKVTISCSGSSSNIGNHYVSWYQQLPGTAPKLLIYDNSERTSGIPDRFSGSKSGTSATLGITGLQTGDEADYYCGTWDELTSNLVFGGGTKLTVL', 'ka', '275000 M⁻¹ s⁻¹'),
  ('C0021092: anti-ARG2 antibody, VH SEQ ID NO: 92, VL SEQ ID NO: 97 (antibody, listed as Homo sapiens, V domains shown, C0021092) VH: EVQLLESGGGLVQPGGSLRLSCAASGFTFSRYAMSWVRQAPGKGLEWVSAHTHSPGSTYYADSVKGRFTISRDNSKNTLYLQMNSLRAEDTAVYYCARLRADLGLYMDLWGRGTLVTVSS VL: QSVLTQPPSVSAAPGQKVTISCSGSSSNIGNHYVSWYQQLPGTAPKLLIYNSVARPSGIPDRFSGSKSGTSATLGITGLQTGDEADYYCGTWDSSLSALVFGGGTKLTVL', 'ka', '354000 M⁻¹ s⁻¹');

Lab note: next molecule to report on.
Query: Bench note: what ka did C0021022: anti-ARG2 antibody, VH SEQ ID NO: 42, VL SEQ ID NO: 47 (antibody, listed as Homo sapiens, V domains shown, C0021022) VH: EVQLLESGGGLVQPGGSLRLSCAASGFTFSSYAMSWVRQAPGKGPEWVSAISGFSPYYADSVKGRFTISRDNSKNTLYLQMNSLRAEDTAVYYCARLRADLGLYMDLWGRGTLVTVSS VL: QSVLTQPPSVSAAPGQKVTISCSGSSSNIGNHYVSWYQQLPGTAPKLLIYDNSERPSGIPDRFSGSKSGTSATLGITGLQTGDEADYYCGTWDSSLSALVFGGGTKLTVL show?
Reply: 706000 M⁻¹ s⁻¹
